# assayed_system: human FXa (Homo sapiens)
# measurement_description: Measurement of Activated Blood Coagulation Factor X (FXa) Inhibition Activity
# setup_conditions: substrate S-2222, 37° C., 15 minutes
property_measured: pIC50
Numbers only, as −log10 of the molar value.

// known answers, use as guide
1. CC(=N)N1CC[C@H](Oc2ccc(C(CC(=O)O)Cc3cc4cc(C(=N)N)ccc4s3)cc2)C1.Cl.Cl (some centres unmarked) [Inventive Example 104, Dihydrochloride] = 7.07
2. CC(=N)N1CC[C@H](Oc2ccc(C(Cc3nc4cc(C(=N)N)ccc4s3)C(=O)O)cc2)C1.Cl.Cl (some centres unmarked) [Inventive Example 89, Dihydrochloride] = 6.22
3. CC(=N)N1CCC(Oc2ccc(C(Cc3ccc4ccc(C(=N)N)cc4c3)C(=O)O)cc2)CC1.Cl.Cl (centres unmarked) [Inventive Example 108, Dihydrochloride] = 7.74

Items follow; give pIC50 for each.
1. CCn1c(CC(C(=O)O)c2ccc(OC3CCN(C(C)=N)CC3)cc2)cc2ccc(C(=N)N)cc21.Cl.Cl (centres unmarked) [Inventive Example 98, Dihydrochloride]
2. Cl.Cl.N=C(N)c1ccc2[nH]c(CC(C(=O)O)c3ccc(O[C@H]4CCNC4)cc3)cc2c1 (some centres unmarked) [Inventive Example 68, Dihydrochloride]
3. CC(=N)N1CCC[C@H]1COc1ccc(C(Cc2cc3cc(C(=N)N)ccc3s2)C(=O)O)cc1.Cl.Cl (some centres unmarked) [Inventive Example 96, Dihydrochloride]
4. CC(=N)N1CCC(Oc2ccc(C(Cc3cc4cc(C(=N)N)ccc4s3)C(=O)O)cc2)CC1.Cl.Cl (centres unmarked) [Inventive Example 97, Dihydrochloride]
5. CC(=N)N1CCC(Oc2ccc(C(Cc3ccc4ccc(C(=N)N)cc4c3)C(=O)O)cc2)CC1.Cl.Cl (single isomer, unassigned; (+)) [Inventive Example 43, Dihydrochloride]

Key:
1. 7.96
2. 6.77
3. 7.36
4. 7.35
5. 7.89

Items follow; give pIC50 for each.
1. CCCCCC(=N)N1CC[C@H](Oc2ccc(C(Cc3cc4cc(C(=N)N)ccc4s3)C(=O)O)cc2)C1.Cl.Cl (some centres unmarked) [Inventive Example 94, Dihydrochloride]
2. CC(=N)N1CCC[C@H]1COc1ccc(C(Cc2cc3cc(C(=N)N)ccc3s2)C(=O)O)cc1.Cl.Cl (single isomer, unassigned; (+)) [Inventive Example 41, Dihydrochloride]
3. Cl.Cl.N=C(N)c1ccc2sc(CC(C(=O)O)c3ccc(O[C@H]4CCN(C(=N)C5CC5)C4)cc3)cc2c1 (some centres unmarked) [Inventive Example 95, Dihydrochloride]

Key:
1: 7.00; 2: 7.49; 3: 6.80

* * *

For each entry below, report its IC50 value.
# assayed_system: human FXa (Homo sapiens, UniProt P00742)
# Sequence (P00742 235-488 limits assumed): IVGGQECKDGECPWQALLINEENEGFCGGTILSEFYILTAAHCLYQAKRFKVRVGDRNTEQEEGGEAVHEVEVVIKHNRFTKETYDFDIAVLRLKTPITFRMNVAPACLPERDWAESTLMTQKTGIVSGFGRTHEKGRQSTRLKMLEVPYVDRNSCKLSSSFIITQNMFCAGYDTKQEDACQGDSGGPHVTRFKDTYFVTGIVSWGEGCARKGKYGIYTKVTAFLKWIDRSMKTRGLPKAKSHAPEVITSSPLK
# Sequence (P00742 41-179 limits assumed): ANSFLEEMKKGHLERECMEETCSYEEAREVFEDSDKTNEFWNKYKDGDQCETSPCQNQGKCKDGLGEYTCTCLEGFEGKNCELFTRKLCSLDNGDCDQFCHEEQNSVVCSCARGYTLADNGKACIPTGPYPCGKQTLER
# measurement_description: Measurement of Activated Blood Coagulation Factor X (FXa) Inhibition Activity
# setup_conditions: substrate S-2222, 37° C., 15 minutes
# Experimental: Measurement of Activated Blood Coagulation Factor X (FXa) Inhibition Activity A 180 μl portion of physiological saline solution containing a compound to be tested was mixed with 200 μl of Tris-HCl buffer (pH 8.4) and 100 μl of 1 mM S-2222 (KabiVitrum AB) aqueous solution, and the mixture was incubated at 37° C. […] After 15 minutes of incubation at the same temperature, the reaction was stopped by adding 100 μl of 60% acetic acid, and absorbance of the reaction mixture was measured. […]
Structures can show the parent of a compound that is named as a salt.
Numbers only, in nM.

// known answers, use as guide
1) CCn1c(CC(C(=O)O)c2ccc(O[C@H]3CCN(C(C)=N)C3)cc2)cc2ccc(C(=N)N)cc21 (stereo partly shown) [Inventive Example 105, Dihydrochloride] = 54
2) N=C(N)c1ccc2oc(CCc3cc4cc(C(=N)N)ccc4o3)cc2c1 [DABE, 1,2-bis(5-amidino-2-benzofuranyl)ethane, reference compound] = 95
3) Cl.Cl.N=C(N)c1ccc2cc(CC(C(=O)O)c3ccc(O[C@H]4CCNC4)cc3)[nH]c2c1 (single isomer, unassigned; (+)) [Inventive Example 48, Dihydrochloride] = 360

Consider the additional molecule presented here.
Exercise: Look up IC50 with human FXa (Homo sapiens, UniProt P00742) for this molecule: CC(=N)N1CC[C@H](Oc2ccc(CC(C(=O)O)c3cc4cc(C(=N)N)ccc4s3)cc2)C1 (stereo partly shown) [Inventive Example 106, Dihydrochloride]
Key: 560
